Test system: γ-PAK
Sequence (Q29502 249-500 limits assumed): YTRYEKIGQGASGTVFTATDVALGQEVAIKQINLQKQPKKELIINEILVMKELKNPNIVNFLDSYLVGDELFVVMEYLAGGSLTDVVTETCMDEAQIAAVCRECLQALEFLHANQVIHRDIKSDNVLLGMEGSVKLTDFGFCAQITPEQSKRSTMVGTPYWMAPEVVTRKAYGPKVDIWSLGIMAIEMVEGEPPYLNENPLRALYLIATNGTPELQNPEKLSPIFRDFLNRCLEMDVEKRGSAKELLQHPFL
Experiment: Rates of phosphorylation of synthetic peptides by γ-PAK
Format: biochemical, rabbit
Conditions: Cdc42(GTPγS)-activated γ-PAK; peptide 1 mM; KKRKSAA = 100
No end group written: not given here.
Endpoint Name: rel rate (%)
Record the result as number plus unit.

According to the records, this substance KKAASAA (KKAASAA-NH2) [synthetic peptide with an amide C-terminal group] displays rel rate (%) of 3%

Noted for ARRASAA (ARRASAA-NH2) [synthetic peptide with an amide C-terminal group] : its rel rate (%) reads 134%

rel rate (%) measured on EKRASAA (EKRASAA-NH2) [synthetic peptide with an amide C-terminal group] = 151%

# substance AKRKSAA (AKRKSAA-NH2) [synthetic peptide with an amide C-terminal group] ; its rel rate (%) = 158%

rel rate (%) measured on AKRASPA (AKRASPA-NH2) [synthetic peptide with an amide C-terminal group] = 3%

The reported value for AARASAA (AARASAA-NH2) [synthetic peptide with an amide C-terminal group] in terms of rel rate (%) is 56%

Entry AKAASAA (AKAASAA-NH2) [synthetic peptide with an amide C-terminal group] — recorded rel rate (%) = 3%
